experiment: Cell cytotoxicity (CC50); format: cell-based; conditions: human; mean of at least two experiments
compounds and their reported CC50

Example cases with answers are listed next.
Test smiles | Result
[2H]C([2H])([2H])Oc1ccc2nc(-c3ccccc3)c(C(=O)N[C@H]3N=C(c4ccccc4)c4ccccc4NC3=O)n2n1 | > 25 µM
Cn1ccc2cc(-c3nn4cccnc4c3C(=O)N[C@H]3N=C(c4ccccc4)c4cccc(F)c4NC3=O)cnc21 | > 25 µM
COc1nc(C)ccc1-c1nn2cccnc2c1C(=O)N[C@H]1N=C(c2ccccc2)c2ccccc2NC1=O | > 25 µM
O=C(N[C@H]1N=C(c2ccccc2)c2cccc(F)c2NC1=O)c1c(-c2ccccc2)nc2ccc(N3CCOCC3)nn12 | > 25 µM
O=C(N[C@H]1N=C(c2ccccc2)c2ccccc2NC1=O)c1c(-c2cncc(Cl)c2)nn2cccnc12 | > 25 µM
CN1C[C@H]2C[C@@H]1CN2c1ccc2nc(-c3ccccc3)c(C(=O)N[C@H]3N=C(c4ccccc4)c4cccc(F)c4NC3=O)n2n1 | 8.15 µM

In plain terms, O=C(N[C@H]1N=C(c2ccccc2)c2ccccc2NC1=O)c1c(-c2ccccc2F)nn2ccc(N3CCCC3)nc12 has a documented CC50 of > 25 µM

====

assay: in vitro; assay type: in vitro ADME; conditions: hepatocytes; dog; 3 μM compound; read-out: Liver Hepatocyte Stability t1/2
Measured parameter: half-life at 3 μM

Guide cases for half-life at 3 μM, answers given:
Test smiles | half-life at 3 μM
O=C(N[C@H]1N=C(c2ccccc2)c2cccc(F)c2NC1=O)c1c(-c2ccccc2F)nn2cccnc12 | > 3.1 h
Cc1nc2ccc(Cl)nn2c1C(=O)N[C@H]1N=C(c2ccccc2)c2ccccc2NC1=O | 2.55 h

Note to self: half-life at 3 μM recorded for CCc1ccc(-c2nn3cccnc3c2C(=O)N[C@H]2N=C(c3ccccc3)c3cccc(F)c3NC2=O)c(C)n1 was 43.3 h

O=C(N[C@H]1N=C(c2ccccc2)c2cccc(F)c2NC1=O)c1c(-c2ccccc2F)nc2cccnn12 has a reported half-life at 3 μM of 2.12 h

For Cc1ccc2nc(-c3ccccc3)c(C(=O)N[C@H]3N=C(c4ccccc4)c4cccc(F)c4NC3=O)n2n1 the compound record lists half-life at 3 μM as 7.42 h

====

experiment: in vitro; type: in vitro ADME; conditions: microsomes, pH 7.4; human; 1 μM compound, 0.5 mg/mL protein; read-out: Liver Microsomal Stability t1/2
Catalogue of compounds with associated half-life at 1 μM
Field format: number, assumed h, no unit text.

Test smiles | half-life at 1 μM, h
COc1ccc2nc(-c3cncc(C)c3)c(C(=O)N[C@H]3N=C(c4ccccc4)c4cccc(F)c4NC3=O)n2n1 | 1.98
CN1C[C@@H]2C[C@H]1CN2c1ccc2nc(-c3ccccc3)c(C(=O)N[C@H]3N=C(c4ccccc4)c4cccc(F)c4NC3=O)n2n1 | 2.4
Cc1ccn2nc(-c3ccccc3F)c(C(=O)N[C@H]3N=C(c4ccccc4)c4cccc(F)c4NC3=O)c2n1 | 6.65
COc1ccc2nc(-c3ccccc3F)c(C(=O)N[C@H]3N=C(c4ccccc4)c4cccc(F)c4NC3=O)n2n1 | 2.5
CNc1ccc(-c2nn3cccnc3c2C(=O)N[C@H]2N=C(c3ccccc3)c3ccccc3NC2=O)cc1 | 1.22

Next, consider the following compound.
Entry CNc1ccc(-c2nn3cccnc3c2C(=O)N[C@H]2N=C(c3ccccc3)c3ccccc3NC2=O)c(F)c1 , half-life at 1 μM reported as 1.5
